- RUN DESCRIPTION: Solubility in gastric juice or intestinal juice model fluid (precipitation method using DMSO)
- Type: physicochemical
- APPLIED CONDITIONS: pH 6.8, kinetic from dmso stock, 2nd fluid for Disintegration Test of Japanese Pharmacopoeia (pH: 6.8), room temperature, read-out: Solubility (μg/mL) 2nd fluid
OUTCOME MEASURE: solubility at 24 h (µg/mL)

I: COc1cc(OCc2ccc(C(F)(F)F)cn2)ccc1-c1[nH]c(C2CCCC(F)(F)C2)nc1Br (stereo not shown) [Example 183]
II: COc1cc(O[C@@H](C)c2ccc(C(F)(F)F)cc2)ccc1-c1cnc(-c2ccc(F)nc2)[nH]1 [Example 145]
III: COc1cc(-c2cnc(C3CCC(F)(F)CC3)[nH]2)ccc1O [Example 339]
Ascending by solubility at 24 h, please. Order the labels as requested and list them.
I, II, III

====

- RUN DESCRIPTION: Solubility in gastric juice or intestinal juice model fluid (precipitation method using DMSO)
- Assay type: physicochemical
- APPLIED CONDITIONS: 1st fluid for Disintegration Test of Japanese Pharmacopoeia (pH: 1.2), room temperature, 24 hours
OUTCOME MEASURE: Solubility (μg/mL) 1st fluid (µg/mL)

COc1cc(O[C@H](C)c2ccc(C(F)(F)F)nc2)ccc1-c1cnc(-c2ccc(F)nc2)[nH]1; 19.6

1: COc1cc(OC(C)c2ccc(C(F)(F)F)cn2)ccc1-c1nc(-c2ccc(F)nc2)[nH]c1Cl (stereo not shown)
2: COc1cc(OC(C)c2ccc(C(F)(F)F)cn2)ccc1-c1[nH]c(-c2ccc(F)nc2)nc1Cl (stereo not shown)
Sort 1 and 2 by Solubility (μg/mL) 1st fluid descending and give the first. Response format: the label of the selected entry.
1
(1: 83.4 µg/mL, 2: 12 µg/mL)

====

OUTCOME MEASURE: melting point

Solved entries:
COc1cc(-c2[nH]c(C3CC(F)(F)C3)nc2Cl)ccc1OCc1ccc(C(F)(F)F)nc1; 170 to 174 °C
COc1cc(OCc2ccc(C(F)(F)F)nc2)ccc1-c1c[nH]c(-c2ccc(Cl)cn2)n1; 186 to 189 °C
COc1cc(OCc2ccc(C(F)(F)F)cn2)ccc1-c1[nH]c(C2CCC(F)(F)CC2)nc1Cl; 147 to 149 °C
COc1cc(OCc2ccc(C(F)(F)F)nc2)c(C)cc1-c1[nH]c(C2CCC(F)(F)CC2)nc1Br; 195 to 196 °C
COc1cc(-c2[nH]c(-c3ccc(F)nc3)nc2Cl)ccc1OC(C)c1ncc(C(F)(F)F)cc1F (centres unmarked); 113 to 118 °C
COCn1cc(-c2ccc(OCc3ccc(C(F)(F)F)cn3)cc2OC)nc1-c1ccc(F)nc1; 172 to 174 °C
COc1cc(OCc2cnccn2)ccc1-c1nc(-c2ccc(Cl)nc2)[nH]c1Cl; 172 to 174 °C
COc1cc(OCn2cccn2)ccc1-c1nc(-c2ccc(Cl)nc2)[nH]c1Cl; 166 to 169 °C

melting point lookup needed for COc1cc(-c2[nH]c(C3CCC(F)(F)CC3)nc2Cl)ccc1OCc1ncc(C(F)(F)F)cc1F , thanks.
173 to 176 °C

Another compound to check: COc1cc(-c2c[nH]c(C3CCC3)n2)ccc1OCc1ccc(C(F)(F)F)cn1
210 to 213 °C (dec.)

Same lookup for COc1cc(OCc2cnccn2)ccc1-c1c[nH]c(-c2ccc(Cl)nc2)n1 , please.
210 to 213 °C (dec.)

Values from patent US10570117B2
